The reported measurements were obtained from ChEMBL document CHEMBL5331143.

target: Neuropeptide Y receptor type 2 (Homo sapiens, UniProt P49146); test: Displacement of [3H]propionyl-pNPY from human Y2 receptor expressed in CHO cells measured after 90 mins by MicroBeta plate counter based competition binding assay; type: cell-based; settings: read-out: Ki
Sequence (P49146 whole entry): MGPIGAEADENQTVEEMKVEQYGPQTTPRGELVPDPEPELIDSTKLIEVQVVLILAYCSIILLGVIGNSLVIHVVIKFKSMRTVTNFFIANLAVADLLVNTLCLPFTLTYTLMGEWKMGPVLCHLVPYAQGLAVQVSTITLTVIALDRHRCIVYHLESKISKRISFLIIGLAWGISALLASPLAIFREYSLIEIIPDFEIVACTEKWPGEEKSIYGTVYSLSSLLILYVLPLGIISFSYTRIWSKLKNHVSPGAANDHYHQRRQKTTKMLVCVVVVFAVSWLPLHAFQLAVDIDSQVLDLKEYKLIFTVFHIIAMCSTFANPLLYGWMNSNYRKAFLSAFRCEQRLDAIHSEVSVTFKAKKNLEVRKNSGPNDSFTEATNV
Starred links: 1 amine or outer side, 2 acyl side, 3 side chain; linkers in the order of their positions; H or OH if unused. Non-standard residues stand in square brackets, D forms with d. Residues, ends and D or L forms follow the SMILES beside them. X1 = O=C([C@@H]1C[C@@H](c2ccccc2)[C@@H]1CN[*:1])[*:2]; X2 = O=C([C@H]1C[C@H](c2ccccc2)[C@H]1CN[*:1])[*:2]
Field: Ki. Provide a value for each of the compounds that follow.

Per the record, "CC(=O)N[C@@H](CCCNC(=N)N)C(=O)N[C@@H](Cc1ccc(O)cc1)C(=O)N[C@@H](CCCNC(=N)N)C(=O)N[C@@H](CC(C)C)C(=O)N[C@@H](CCCNC(=N)N)C(=O)N[C@@H](Cc1ccc(O)cc1)C(N)=O" has Ki of > 5 µM

Entry CC(=O)N[C@@H](CCCNC(=N)N)C(=O)NC[C@H]1[C@@H](C(=O)N[C@@H](CCCNC(=N)N)C(=O)N[C@@H](CC(C)C)C(=O)N[C@@H](CCCNC(=N)N)C(=O)N[C@@H](Cc2ccc(O)cc2)C(N)=O)C[C@@H]1c1ccccc1 (Ac-R[X2]RLRY-NH2) ; Ki = > 3 µM

The recorded Ki for CC(=O)N[C@@H](CCCNC(=N)N)C(=O)NC[C@@H]1[C@H](C(=O)N[C@@H](CCCNC(=N)N)C(=O)NC[C@@H]2[C@H](C(=O)N[C@@H](CCCNC(=N)N)C(=O)N[C@@H](Cc3ccc(O)cc3)C(N)=O)C[C@H]2c2ccccc2)C[C@H]1c1ccccc1 (Ac-R[X1]R[X1]RY-NH2) is > 3 µM

Memo: CC(=O)N[C@@H](CCCNC(=N)N)C(=O)NC[C@H]1[C@@H](C(=O)N[C@@H](CCCNC(=N)N)C(=O)NC[C@H]2[C@@H](C(=O)N[C@@H](CCCNC(=N)N)C(=O)N[C@@H](Cc3ccc(O)cc3)C(N)=O)C[C@@H]2c2ccccc2)C[C@@H]1c1ccccc1 (Ac-R[X2]R[X2]RY-NH2) , reported Ki: > 3 µM

---

target: UniProt:P49146; assay: Displacement of [3H]propionyl-pNPY from human Y2 receptor expressed in CHO cells measured after 90 mins by MicroBeta plate counter based competition binding assay; type: cell-based; conditions: read-out: pKi (converted)
Starred links: 1 amine or outer side, 2 acyl side, 3 side chain; linkers in the order of their positions; H or OH if unused. Non-standard residues stand in square brackets, D forms with d. Residues, ends and D or L forms follow the SMILES beside them. X1 = O=C([C@@H]1C[C@@H](c2ccccc2)[C@@H]1CN[*:1])[*:2]; X2 = O=C([C@H]1C[C@H](c2ccccc2)[C@H]1CN[*:1])[*:2]
Field: Ki. Provide a value for each of the compounds that follow.

Lab note: measured Ki of CC(=O)N[C@@H](CCCNC(=N)N)C(=O)NC[C@@H]1[C@H](C(=O)N[C@@H](CCCNC(=N)N)C(=O)N[C@@H](CC(C)C)C(=O)N[C@@H](CCCNC(=N)N)C(=O)N[C@@H](Cc2ccc(O)cc2)C(N)=O)C[C@H]1c1ccccc1 (Ac-R[X1]RLRY-NH2) was > 1 µM

The recorded Ki for CC(=O)N[C@@H](CCCNC(=N)N)C(=O)NC[C@@H]1[C@H](C(=O)N[C@@H](CCCNC(=N)N)C(=O)NC[C@@H]2[C@H](C(=O)N[C@@H](CCCNC(=N)N)C(=O)N[C@@H](Cc3ccc(O)cc3)C(N)=O)C[C@H]2c2ccccc2)C[C@H]1c1ccccc1 (Ac-R[X1]R[X1]RY-NH2) is > 3.16 µM

Consider CC(=O)N[C@@H](CCCNC(=N)N)C(=O)NC[C@H]1[C@@H](C(=O)N[C@@H](CCCNC(=N)N)C(=O)N[C@@H](CC(C)C)C(=O)N[C@@H](CCCNC(=N)N)C(=O)N[C@@H](Cc2ccc(O)cc2)C(N)=O)C[C@@H]1c1ccccc1 (Ac-R[X2]RLRY-NH2) . Its measured Ki is > 3.16 µM

get_value(item= "CC(=O)N[C@@H](CCCNC(=N)N)C(=O)N[C@@H](Cc1ccc(O)cc1)C(=O)N[C@@H](CCCNC(=N)N)C(=O)N[C@@H](CC(C)C)C(=O)N[C@@H](CCCNC(=N)N)C(=O)N[C@@H](Cc1ccc(O)cc1)C(N)=O" , readout=Ki) returns > 5.01 µM

Summary for this compound, CC(=O)N[C@@H](CCCNC(=N)N)C(=O)NC[C@H]1[C@@H](C(=O)N[C@@H](CCCNC(=N)N)C(=O)NC[C@H]2[C@@H](C(=O)N[C@@H](CCCNC(=N)N)C(=O)N[C@@H](Cc3ccc(O)cc3)C(N)=O)C[C@@H]2c2ccccc2)C[C@@H]1c1ccccc1 (Ac-R[X2]R[X2]RY-NH2) : Ki is > 3.16 µM
